- Tested on: HT-29
- Method summary: Cytotoxicity against HT-29 cell line in the purdue cell culture screen was determined
- Format: functional
- Test settings: Homo sapiens, read-out: ED50 (the source's name)
Collected EC50 values appear next to each entry.

Examples with their reported EC50 follow.
1) CO/N=C1\C[C@]2(C)CCC3C4=C[C@@H]5OC6(CC(C)(C)CO6)[C@@H](C)[C@@H]5[C@@]4(C)[C@H](O)C[C@]3(C)[C@@]2(C)C[C@H]1N (some centres not stated): 7.8 µM
2) CC(=O)O[C@H]1CC[C@@]2(C)C(=CCC3[C@]4(C)CC(=O)[C@](O)([C@H](C)C5(CCC(C)C)OCCO5)[C@@]4(C)CC[C@@]32C)C1 (some centres not stated): 0.5 µM

Field: next compound
Quick note, EC50 for CC(C)CCC1([C@@H](C)[C@@]2(O)C(=O)C[C@@]3(C)C4CC[C@@]5(C)C[C@@H](O)CC[C@]5(C)[C@@]4(C)CC[C@@]32C)OCCO1 (some centres not stated) landed at 2.1 µM

----------
Collected EC50 values appear next to each entry.
- System: HT-29
- Method summary: Cytotoxicity against HT-29 cell line in the purdue cell culture screen was determined
- Assay type: functional
- Test settings: Homo sapiens, read-out: ED50 (the source's name)
Structures can show the parent of a compound that is named as a salt.
Give the figure together with its unit, number first.

1. CC(C)CCC1([C@@H](C)[C@@]2(O)[C@H](O)C[C@@]3(C)C4CC[C@@]5(C)C[C@@H](O)CC[C@]5(C)[C@@]4(C)CC[C@]23C)OCCO1 (stereo partly specified): 3 µM

Summary line: CC(=O)O[C@H]1CC[C@@]2(C)[C@@](C)(CCC3[C@]2(C)CC[C@@]2(C)[C@@]3(C)CC(=O)[C@]2(O)[C@H](C)C2(CCC(C)C)OCCO2)C1 (stereo partly specified) , HT-29, reported EC50 = 7.5 µM

Summary line: COc1cccc2c1C(=O)c1c(O)c3c(c(O)c1C2=O)C[C@@](O)(C(=O)CO)C[C@@H]3O[C@H]1C[C@H](N)[C@H](O)[C@H](C)O1 [DOXORUBICIN HYDROCHLORIDE] , HT-29, reported EC50 = 3.7 µM

Summary line: CC(=O)O[C@H]1CC[C@@]2(C)C(=CCC3[C@]4(C)C[C@H](O)[C@](O)([C@H](C)C5(CCC(C)C)OCCO5)[C@@]4(C)CC[C@@]32C)C1 (stereo partly specified) , HT-29, reported EC50 = 4.8 µM

Summary line: CC(C)CCC1([C@@H](C)[C@@]2(O)[C@@H](O)C[C@@]3(C)C4CC[C@@]5(C)C[C@@H](O)CC[C@]5(C)[C@@]4(C)CC[C@]23C)OCCO1 (stereo partly specified) , HT-29, reported EC50 = 0.58 µM

Summary line: CC(=O)O[C@H]1CC[C@@]2(C)[C@@](C)(CCC3[C@]2(C)CC[C@]2(C)[C@@](O)([C@H](C)C4(CCC(C)C)OCCO4)[C@H](O)C[C@@]32C)C1 (stereo partly specified) , HT-29, reported EC50 = 29 µM

----------
Collected EC50 values appear next to each entry.
- Test system: A549
- Method summary: Cytotoxicity against A-549 cell line in the purdue cell culture screen was determined
- Type: functional
- Test settings: Homo sapiens, read-out: ED50 (the source's name)
Where a name gives a salt, the structure may show the parent alone.
The figure you give is taken to be in µM; do not add the unit.

Examples with their reported EC50 follow.
1) CC(C)CCC1([C@@H](C)[C@@]2(O)[C@@H](O)C[C@@]3(C)C4CC[C@]5(C)Cc6nc7c(nc6C[C@]5(C)[C@]4(C)CC[C@]23C)C[C@@]2(C)CCC3[C@@H]4C[C@@H]5OC6(O[C@](C)(CO)C[C@H]6O)[C@@H](C)[C@]5(O)[C@@]4(C)[C@H](O)C[C@]3(C)[C@@]2(C)C7)OCCO1 (some centres undefined): 2.9
2) CC(C)CCC1([C@@H](C)[C@@]2(O)[C@@H](O)C[C@@]3(C)C4CC[C@@]5(C)C[C@@H](O)CC[C@]5(C)[C@@]4(C)CC[C@]23C)OCCO1 (some centres undefined): 0.34
3) CC(C)CCC1([C@@H](C)[C@@]2(O)[C@@H](O)C[C@@]3(C)C4CC[C@@]5(C)Cc6nc7c(nc6C[C@]5(C)[C@@]4(C)CC[C@]23C)C[C@]2(C)CCC3C4=C[C@@H]5OC6(CC(C)(C)CO6)[C@@H](C)[C@@H]5[C@@]4(C)[C@H](O)C[C@]3(C)[C@@]2(C)C7)OCCO1 (some centres undefined): 0.1

Field: next compound
Quick note, EC50 for COc1cccc2c1C(=O)c1c(O)c3c(c(O)c1C2=O)C[C@@](O)(C(=O)CO)C[C@@H]3O[C@H]1C[C@H](N)[C@H](O)[C@H](C)O1 [DOXORUBICIN HYDROCHLORIDE] landed at 6.2
